Measured logD by item
Protocol Details: physchem
Condition Notes: octan-1-ol/water, pH 7.4, LogD7.4

{"Molecule": "N=C(N)NCCC[C@H](NC(=O)COCC(c1ccccc1)c1ccccc1)C(=O)O", "logD": 0.18}
{"Molecule": "C[C@H](CO)Nc1[nH]c(SCc2ccccc2F)nc2nc(=O)sc1-2", "logD": 3}
{"Molecule": "COc1ccccc1CNC(=O)c1ccc2cnccc2n1", "logD": 1.8}
{"Molecule": "Cn1cc(S(C)(=O)=O)nc1-c1c2c(=O)n(C)c(=O)n(CC3CC3)c2nn1Cc1ccnc2ccc(Cl)cc12", "logD": 2.64}
{"Molecule": "Cc1oc(-c2ccccc2)cc1C(=O)Nc1cccc(C(=O)O)c1", "logD": 1.63}
{"Molecule": "Cn1c(-c2ccncc2)cc2onc(-c3ccccc3)c2c1=O", "logD": 2.61}
{"Molecule": "CO[C@H]1/C=C/O[C@@]2(C)Oc3c(C)c(O)c4c(O)c(cc(O)c4c3C2=O)NC(=O)/C(C)=C\\C=C\\[C@H](C)[C@H](O)[C@@H](C)[C@@H](O)[C@@H](C)[C@H](OC(C)=O)[C@@H]1C [RIFAMYCIN]", "logD": 1.19}
{"Molecule": "CCS(=O)(=O)c1ccc(Oc2cc3nc(-c4ccccn4)[nH]c3cc2CN2C(=O)CCC2=O)cc1", "logD": 2}
{"Molecule": "NC1=NN(c2cccc(C(F)(F)F)c2)CC1 [BW-755C]", "logD": 2.55}
{"Molecule": "CS(=O)(=O)NCCC(NC(=O)C1(N)CCN(c2ncnc3[nH]ccc23)CC1)c1ccc(Cl)cc1 (stereo not given)", "logD": 2.2}
{"Molecule": "CC(C)(C)Cn1c(CN2C(=O)CC3(CCNCC3)C2=O)cc2cnc(C#N)nc21", "logD": 0.75}
{"Molecule": "c1ccc(-c2ccc(COc3ccc4c(c3)CCC(CCN3CCCCC3)C4)cc2)cc1 (stereo not given)", "logD": 3.3}
{"Molecule": "Cc1cc(NC(=O)c2ccccc2)n[nH]1", "logD": 1.75}
{"Molecule": "CC[C@H](C)[C@@H](CO)NS(=O)(=O)c1ccc(Cl)s1", "logD": 2.7}
{"Molecule": "CO[C@H]1CC[C@]2(CC1)Cc1ccc(OCC(C)C)cc1C21N=C(C)C(N)=N1 (stereo not given in full)", "logD": 3.4}
{"Molecule": "CCN(CC)CCn1c2ccccc2c2cnc(N)c(C#N)c21", "logD": 2.7}
{"Molecule": "COc1ccc(CNCc2cccc(CCNC[C@H](O)c3ccc(O)c4[nH]c(=O)sc34)c2)cc1", "logD": 0.86}
{"Molecule": "COc1cc2ncnc(Nc3ccc(F)c(Cl)c3)c2cc1OCCCN1CCCCC1", "logD": 3.3}
{"Molecule": "Clc1ccc(-c2cn3ccccc3n2)cc1", "logD": 4}
{"Molecule": "NC(=O)Nc1cc(-c2cccc(F)c2F)sc1C(=O)N[C@H]1CCCNC1", "logD": 1.32}

----------
Measured fraction unbound at 5 h by item
Protocol Details: in vitro
Condition Notes: human, plasma, PPB

{"Compound": "COc1cccc2c1c(NS(=O)(=O)c1ccc(Cl)s1)nn2Cc1cccc(CNC(=O)[C@H]2COCCN2)c1", "fraction unbound at 5 h": 0.0156}
{"Compound": "Cc1cc(Nc2nc(N[C@@H](C)c3ncc(F)cn3)ncc2Br)n[nH]1", "fraction unbound at 5 h": 0.0854}
{"Compound": "COc1cnc(-c2ccccc2C(F)(F)CNC(=O)c2ccc(COCC(F)(F)F)nc2)cn1", "fraction unbound at 5 h": 0.0069}
{"Compound": "CCc1nc2c(N)nc3ccccc3c2n1CC(C)C", "fraction unbound at 5 h": 0.117}
{"Compound": "COc1cc2ncn(-c3cc(OCc4ccccc4S(C)(=O)=O)c(C#N)s3)c2cc1OC [GSK-319347A]", "fraction unbound at 5 h": 0.0111}
{"Compound": "COc1cccc(/C=C2\\SC(=O)NC2=O)c1N1CCC[C@@H](N)C1", "fraction unbound at 5 h": 0.0836}
{"Compound": "CC(C)N(CCNCCc1ccc(O)c2[nH]c(=O)sc12)C(=O)CCOCCc1ccccc1", "fraction unbound at 5 h": 0.028}
{"Compound": "CCOc1cc2c(c(F)c1OCC)C(=N)N(CC(=O)c1cc(N3CCOCC3)c(OC)c(C(C)(C)C)c1)C2", "fraction unbound at 5 h": 0.0021}
{"Compound": "CCOc1cc2ncc(C(N)=O)c(Nc3ccc(F)cc3F)c2cc1N1CCN(CC)CC1", "fraction unbound at 5 h": 0.0457}

----------
Protocol Details: physchem
Condition Notes: octan-1-ol/water, pH 7.4, LogD7.4
Measured logD by item

{"Molecule": "Cn1c(-c2ccc(O)nc2)nc2ccccc21", "logD": 1.2}
{"Molecule": "COc1cc2ncnc(Nc3cc(Cl)ccc3F)c2cc1OCCCN1CCOCC1", "logD": 3.4}
{"Molecule": "Cc1oc(-c2ccc(Cl)cc2)cc1C(=O)O", "logD": 1.67}
{"Molecule": "COc1cc(N2CCN(CCO)CC2)ccc1Nc1ncc(Cl)c(-c2cnc3ccccn23)n1", "logD": 3.2}
{"Molecule": "C[Si](C)(C)C#Cc1cn(C[C@H]2CN(c3ccc(C4=CCS(=O)(=O)CC4)c(F)c3)C(=O)O2)nn1", "logD": 1.26}
{"Molecule": "CC(C)C(NC(=O)Cn1c(-c2ccc(F)cc2)ncc(NC(=O)OCc2ccncc2)c1=O)C(=O)C(F)(F)F (stereo unspecified)", "logD": 2.22}
{"Molecule": "CN(C)CC(O)COc1ccc(Nc2nccc(N(CC#N)c3cc(Cl)ccc3Cl)n2)cc1 (stereo unspecified)", "logD": 2.4}
{"Molecule": "CN(C)c1nc(N(C)C)nc(N(C)C)n1", "logD": 2.44}
{"Molecule": "CCCCc1nc2c(N)nc3ccccc3c2n1Cc1ccccc1", "logD": 4.17}
{"Molecule": "Cc1cc(Nc2cnc(C#N)c(N[C@@H](C)c3ccc(F)cn3)n2)n[nH]1", "logD": 2.51}
{"Molecule": "COc1cc2ncc(C(N)=O)c(Nc3ccc(F)cc3F)c2cc1N1CCN(C)CC1", "logD": 2.18}
{"Molecule": "O=S(=O)(NCC(c1ccccc1)N1CCCCCC1)c1ccc(C(F)(F)F)cc1 (stereo unspecified)", "logD": 4.29}
{"Molecule": "COc1cc(F)ccc1-c1cccc(CNC2CCCC2)n1", "logD": 2.06}
{"Molecule": "O=[N+]([O-])c1ccc2[nH]c(-c3ccccn3)nc2c1", "logD": 2.8}
{"Molecule": "COc1cc(N2CCN(C)CC2)c2[nH]c(C(=O)Nc3ccc(N4CCOCC4)cc3)cc(=O)c2c1", "logD": 2.7}
{"Molecule": "Clc1ccc2ncc(-c3cccc(NC4CNC4)n3)n2c1", "logD": 1.19}
{"Molecule": "Cc1ccc(-c2ncc(C)n2C)cc1NC(=O)c1ccc(OCc2ccccn2)cc1", "logD": 2.67}
{"Molecule": "CC(C)C[C@H](NC(=O)N1CCOCC1)C(=O)N[C@H](/C=C/S(=O)(=O)c1ccccc1)CCc1ccccc1", "logD": 3.4}
{"Molecule": "CN(C)CCOc1ccccc1Cc1ccccc1", "logD": 2.53}
{"Molecule": "Cc1cc(C)cc(-c2nnc(SCC(=O)N3CCN(C(=O)c4ccco4)CC3)o2)c1", "logD": 3}
{"Molecule": "Cc1cc2n[nH]c(=O)n2c2cc(-c3ccc(CO)cc3)ccc12", "logD": 2.86}
{"Molecule": "Cc1ccc(S(=O)(=O)Nc2c(C(=O)N[C@@H](C)C(C)(C)C)c(C)nn2C2CCCCC2)cc1", "logD": 1.97}
{"Molecule": "CN[C@@H](C)C(=O)N[C@H](C(=O)N[C@H]1CCCN(CCc2ccccc2OC)C1)C(C)(C)C", "logD": 1.61}
{"Molecule": "O=C(c1csc2c1CCCC2)N1CCCCC1", "logD": 3.2}
{"Molecule": "Cc1ccc(S(=O)(=O)Nc2c(C(=O)N[C@@H](C)C(C)(C)C)c(C)nn2C(C)(C)C)cc1", "logD": 1.84}
{"Molecule": "Cc1ccc(NC(=O)C2CC2)cc1-n1cnc2ccc(N3CCN(C)CC3)cc2c1=O", "logD": 2.17}
{"Molecule": "COc1cc(C(=O)Nc2cc(NC(=O)c3cccc(N(C)C)c3)ccc2C)cc(OC)c1OC", "logD": 2.54}
{"Molecule": "CN(C)CC(O)COc1ccc(Nc2cc(N(CCC#N)c3cc(Cl)ccc3Cl)ncn2)cc1 (stereo unspecified)", "logD": 2.1}
{"Molecule": "CN1CCN(C(=O)c2cccc(Cc3n[nH]c(=O)c4ccccc34)c2)CC1", "logD": 0.92}
{"Molecule": "CSCCC(NC(=O)c1sccc1Cl)c1nc2ccccc2[nH]1 (stereo unspecified)", "logD": 3.69}
{"Molecule": "NS(=O)(=O)c1cccc(Nc2nccc(Nc3c(Cl)ccc4c3OCO4)n2)c1", "logD": 2.97}
{"Molecule": "O=C(O)c1cccc(C(=O)N2CCC(N3CCC(Oc4ccc(Cl)c(Cl)c4)CC3)CC2)c1", "logD": 1.23}
{"Molecule": "CC(=O)Nc1cccc(Nc2nc(NC3CC3)n3ncc(C#N)c3n2)c1", "logD": 2.1}
{"Molecule": "NC1(C(=O)NC(c2ccccc2)c2ccc(Cl)cc2)CCN(c2ncnc3[nH]ccc23)CC1 (stereo unspecified)", "logD": 4.1}
{"Molecule": "Nc1ccccc1NC(=O)c1ccc(CNc2nccc(-c3cccnc3)n2)cc1", "logD": 2.28}
{"Molecule": "CC[S+]([O-])c1ncccc1C1(O)CCN(CC23CC(c4ccccc42)c2ccccc23)CC1 (stereo unspecified)", "logD": 2}
{"Molecule": "Cc1cnc(NC(=O)Cc2ccccc2)s1", "logD": 2.9}
{"Molecule": "CC(=O)Nc1ccc2c(c1)c(-c1cc(NC3CC3)n3ncc(C#N)c3n1)cn2CCC(=O)O", "logD": -0.87}
{"Molecule": "O=c1c(-c2ccc(O)c(O)c2)coc2cc(O)cc(O)c12", "logD": 2.45}
{"Molecule": "Cc1ccc(C(=O)Nc2ccon2)cc1NC(=O)c1cnn(-c2ccccc2F)c1N", "logD": 2.6}
{"Molecule": "CN1CC(n2nccc2-c2cc(Cl)ccc2Oc2cc(F)c(S(=O)(=O)Nc3ncns3)cc2F)C1", "logD": 1}
